Test: qHTS assay to identify small molecule agonists of the constitutive androstane receptor (CAR) signaling pathway - cell viability counter screen (AID 1224836); also: nearly all actives have a fitted effect of over 45% in size
Conditions: HepG2-CYP2B6-hCAR viability, CellTiter-Fluor, 23 h, PK11195 added to every well; series mostly up to 92.4 µM
Results filed as inconclusive are left out. Active and inactive are the calls of the source. Calls follow the shape of the dose curve; as a rule, active = well fitted cell-killing curve with a large enough effect in the repeat runs; inconclusive = weak or mixed curves, or effect the other way; inactive = flat fitted curve, though single readings scatter.
In this exercise, the only acceptable responses are 1 for active, -1 for inactive

-- ask Would you mind telling me which call this test gave COc1ccc(-c2ccccc2)cc1NNC(=O)OC(C)C ?
-- reply -1

-- ask Field: outcome | Entry: CCOP(O)OCC
-- reply -1

-- ask # fetch the recorded call for CCCCCCCCOC(=O)c1ccc(C(=O)OCCCCCCCC)c(C(=O)OCCCCCCCC)c1 here
-- reply -1

-- ask Look up the recorded call for O=[N+]([O-])c1ccc(F)c([N+](=O)[O-])c1 in this test.
-- reply 1

-- ask Hi team, can someone confirm the assay call for CC(=O)CCC(C)=O ?
-- reply -1

-- ask Recorded test call requested for CNC(C)Cc1ccccc1OC (stereo unspecified)
-- reply -1
